Recorded koff by entry
- target.desc: recombinant trimeric HA of H1N1 A/California/04/09 (Influenza A virus A/California/04/2009 (H1N1))
- settings: remark: other sources report otherwise
Reply with just the number (in s⁻¹).

What koff value was documented for this binder, Fab fragment of TCN-523 (5248_A17) (Fab, V domains shown) VH: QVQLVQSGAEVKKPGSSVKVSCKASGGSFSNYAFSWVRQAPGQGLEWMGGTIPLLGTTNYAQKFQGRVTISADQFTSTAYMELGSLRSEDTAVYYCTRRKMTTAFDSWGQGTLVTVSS VL: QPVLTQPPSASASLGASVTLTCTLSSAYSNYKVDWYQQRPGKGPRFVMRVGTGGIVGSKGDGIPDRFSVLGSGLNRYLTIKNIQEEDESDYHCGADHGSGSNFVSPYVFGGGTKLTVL ?
5.1e-05

What koff value was documented for this binder, Fab fragment of TCN-522 (3212_I12) (Fab, V domains shown) VH: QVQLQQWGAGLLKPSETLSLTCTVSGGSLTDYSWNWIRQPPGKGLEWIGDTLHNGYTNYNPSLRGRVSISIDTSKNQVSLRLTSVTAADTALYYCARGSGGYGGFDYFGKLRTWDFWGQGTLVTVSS VL: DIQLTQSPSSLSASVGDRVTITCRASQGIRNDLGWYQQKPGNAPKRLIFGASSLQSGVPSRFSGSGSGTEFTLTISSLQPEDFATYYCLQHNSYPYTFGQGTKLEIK ?
3.8e-05

What koff value was documented for this binder, Fab fragment of TCN-535 (5246_P19) (Fab, V domains shown) VH: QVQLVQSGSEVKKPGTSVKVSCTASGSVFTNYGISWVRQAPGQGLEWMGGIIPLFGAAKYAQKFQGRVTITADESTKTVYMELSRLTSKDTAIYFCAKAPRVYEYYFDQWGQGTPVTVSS VL: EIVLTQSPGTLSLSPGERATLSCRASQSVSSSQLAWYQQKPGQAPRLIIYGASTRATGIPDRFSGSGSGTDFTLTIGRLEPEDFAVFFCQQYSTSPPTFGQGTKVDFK ?
0.000163

What koff value was documented for this binder, Fab fragment of TCN-534 (5249_B02) (Fab, V domains shown) VH: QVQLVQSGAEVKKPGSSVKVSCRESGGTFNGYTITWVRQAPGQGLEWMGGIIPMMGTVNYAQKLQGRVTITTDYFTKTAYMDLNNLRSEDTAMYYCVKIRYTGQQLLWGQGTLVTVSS VL: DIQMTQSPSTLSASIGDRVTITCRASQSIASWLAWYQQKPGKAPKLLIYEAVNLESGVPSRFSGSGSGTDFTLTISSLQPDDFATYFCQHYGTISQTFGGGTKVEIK ?
5.96e-05

What koff value was documented for this binder, Fab fragment of TCN-530 (5248_H10a) (Fab, V domains shown) VH: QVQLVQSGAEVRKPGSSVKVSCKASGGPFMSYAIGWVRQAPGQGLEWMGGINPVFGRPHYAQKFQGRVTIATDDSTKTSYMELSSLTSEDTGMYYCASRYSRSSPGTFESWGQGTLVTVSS VL: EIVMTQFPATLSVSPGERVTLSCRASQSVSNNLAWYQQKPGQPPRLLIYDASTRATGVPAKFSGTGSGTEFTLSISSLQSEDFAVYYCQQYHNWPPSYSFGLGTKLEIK ?
0.000287

Reference for the values: patent US20150086555A1
